These measurements were taken from patent US20240383830A1.

Target: Monoamine oxidase B (MAO-B) (Homo sapiens)
Sequence (P27338 whole entry, species assumed): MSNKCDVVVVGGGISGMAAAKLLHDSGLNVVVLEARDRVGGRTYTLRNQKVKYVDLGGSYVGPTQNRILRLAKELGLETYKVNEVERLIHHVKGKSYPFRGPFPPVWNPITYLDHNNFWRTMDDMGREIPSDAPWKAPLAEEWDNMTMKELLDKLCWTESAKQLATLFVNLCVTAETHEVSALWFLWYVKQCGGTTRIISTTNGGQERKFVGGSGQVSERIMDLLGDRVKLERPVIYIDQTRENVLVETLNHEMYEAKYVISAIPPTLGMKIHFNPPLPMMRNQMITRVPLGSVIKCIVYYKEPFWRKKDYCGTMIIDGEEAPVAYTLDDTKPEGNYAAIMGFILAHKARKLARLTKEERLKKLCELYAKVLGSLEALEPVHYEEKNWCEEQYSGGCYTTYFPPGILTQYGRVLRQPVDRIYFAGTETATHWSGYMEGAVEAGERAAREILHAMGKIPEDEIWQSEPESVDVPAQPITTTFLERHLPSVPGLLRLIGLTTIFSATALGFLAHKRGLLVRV
Assay: Monoamine oxidase B inhibition efficiency (kynuramine fluorescence)
Type: biochemical
Settings: kynuramine substrate, potassium phosphate buffer pH 7.4, compound 0-200 μM; read-out: IC50 for MAOB
Protocol: Samples were prepared by dilution with DMSO to give concentrations of 0, 2, 5, 10, 20, 50, 100, and 200 μM of the compound, and 5 μl was dispensed into a 96-well plate. 135 μl of potassium phosphate buffer (0.1 M, 7.4 pH) was dispensed into a 96-well plate. […] For the fluorescence blank experiment, potassium phosphate buffer was added instead of monoamine oxidase B to correct the compound-induced fluorescence intensity values.
Would you kindly list log10 IC50 for each of these compounds?
Would you kindly interpret these values as log10 of IC50 expressed in µM?

Please look at this compound and report its log10 IC50: C=C(C)[C@@H]1CCC(C)=C[C@H]1c1cc(C(=O)NCCc2ccc(OC)cc2)c(O)cc1O
1.75

Please look at this compound and report its log10 IC50: C=C(C)[C@@H]1CCC(C)=C[C@H]1c1cc(Cl)c(O)cc1O
1.48

Please look at this compound and report its log10 IC50: C=C(C)[C@@H]1CCC(C)=C[C@H]1c1ccc(O)c(C(=O)O)c1O
1.49

Please look at this compound and report its log10 IC50: C=C(C)[C@@H]1CCC(C)=C[C@H]1c1c(O)c(C(C)=O)c(O)c([C@@H]2C=C(C)CC[C@H]2C(=C)C)c1O
2.15

Please look at this compound and report its log10 IC50: C=C(C)[C@@H]1CCC(C)=C[C@H]1c1c(O)cc(O)cc1C(C)=O
0.32

Please look at this compound and report its log10 IC50: C=C(C)[C@@H]1CCC(C)=C[C@H]1c1c(O)cc(O)cc1Br
1.42

Please look at this compound and report its log10 IC50: C=C(C)[C@@H]1CCC(C)=C[C@H]1c1ccc(O)c(Br)c1O
2.07

Please look at this compound and report its log10 IC50: C=C(C)[C@@H]1CCC(C)=C[C@H]1c1c(O)cc(O)cc1OC
1.55

Please look at this compound and report its log10 IC50: C=C(C)[C@@H]1CCC(C)=C[C@H]1c1ccc(O)c(C(C)=O)c1O
1.21

Please look at this compound and report its log10 IC50: C=C(C)[C@@H]1CCC(C)=C[C@H]1c1cc(C(=O)NCCc2ccc(O)cc2)c(O)cc1O
1.26

Please look at this compound and report its log10 IC50: C=C(C)[C@@H]1CCC(C)=C[C@H]1c1c(O)cc(O)c(C(C)=O)c1O
0.90

Please look at this compound and report its log10 IC50: C=C(C)[C@@H]1CCC(C)=C[C@H]1c1c(O)cc(O)cc1C#N
1.79

---

target: Butyrylcholinesterase (BuChE) (Homo sapiens); assay: Butyrylcholinesterase inhibition efficiency (butyrylthiocholine/DTNB absorbance); type: biochemical
Sequence (P06276 29-602): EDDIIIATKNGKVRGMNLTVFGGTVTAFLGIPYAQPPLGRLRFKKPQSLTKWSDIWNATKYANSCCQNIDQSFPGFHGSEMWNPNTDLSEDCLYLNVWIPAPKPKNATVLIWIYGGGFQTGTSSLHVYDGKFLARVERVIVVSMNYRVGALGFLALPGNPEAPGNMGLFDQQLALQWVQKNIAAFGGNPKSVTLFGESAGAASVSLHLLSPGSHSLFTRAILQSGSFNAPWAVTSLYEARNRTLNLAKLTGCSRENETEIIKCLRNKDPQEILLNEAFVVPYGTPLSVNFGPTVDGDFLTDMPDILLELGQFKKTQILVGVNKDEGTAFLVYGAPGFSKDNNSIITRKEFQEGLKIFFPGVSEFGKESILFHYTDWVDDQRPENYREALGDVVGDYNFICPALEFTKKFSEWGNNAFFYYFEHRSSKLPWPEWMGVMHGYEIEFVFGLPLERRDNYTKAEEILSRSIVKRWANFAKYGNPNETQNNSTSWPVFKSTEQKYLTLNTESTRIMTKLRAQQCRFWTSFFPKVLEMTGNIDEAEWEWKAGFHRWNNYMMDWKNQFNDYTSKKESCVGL
Would you kindly list pIC50 for each of these compounds?
Entry type: numeric. Quantity: pIC50, the -log10 of concentration in molar units.

Please look at this compound and report its pIC50: C=C(C)[C@@H]1CCC(C)=C[C@H]1c1c(O)cc(O)cc1CCC
5.40

Please look at this compound and report its pIC50: C=C(C)[C@@H]1CCC(C)=C[C@H]1c1c(O)cc(O)cc1CCCCC
5.77

Please look at this compound and report its pIC50: C=C(C)[C@@H]1CCC(C)=C[C@H]1c1c(C)cc(O)cc1O
5.77

Please look at this compound and report its pIC50: C=C(C)[C@@H]1CCC(C)=C[C@H]1c1c(O)cc(O)cc1CCc1ccccc1
5.59
